# Target: T1, Vinexin β SH3.3 domain (third SH3 domain of the Vinexin β protein) (UniProt O60504 612-671)
# T1 construct: Vinexin β, third SH3 domain (SH3.3); 15N-labelled for the titrations; source: E. coli, GST fusion protein (pGEX plasmids), thrombin cleavage, purified (size-exclusion chromatography)
# T1 sequence (looked up): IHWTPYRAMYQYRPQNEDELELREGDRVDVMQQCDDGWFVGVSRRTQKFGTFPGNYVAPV
# Assay explanation: NMR titration; peptide stock added stepwise to 15N-labelled SH3 at 314 µM in a 3 mm tube, 298 K; 19F shifts of the peptide and 1H/15N shifts of the SH3 fitted simultaneously; 1:1 and 1:2 models compared
# Condition info: both partners purified
pKd: −log10 of the molar value. Square brackets hold non-standard residues; d marks the D form. Ends that are not written are not given here. Pro(trans-4-F) = O=C(O)[C@@H]1C[C@@H](F)CN1; Pro(cis-4-F) = O=C(O)[C@@H]1C[C@H](F)CN1
# reported pKd; entries follow
Property: pKd

>>> value_measured("PPP[Pro(cis-4-F)]PSP[Pro(trans-4-F)]PPPRVYK (P at 4 and 8 stand for fluoroprolines; Two segments of five prolines separated by one serine, followed by RVYK; source: synthetic peptide (Fmoc solid-phase synthesis, reversed-phase HPLC)) [MpSR peptide]")
4.02
>>> value_measured("PPP[Pro(trans-4-F)]PSP[Pro(cis-4-F)]PPPRVYK (P at 4 and 8 stand for fluoroprolines; source: synthetic peptide (Fmoc solid-phase synthesis, reversed-phase HPLC)) [MpRS peptide]")
3.56
